Value source: patent US9737545B2

The reader will find IC50 measurements below, all made with wildtype HIV-1 protease (Human immunodeficiency virus type 1 group M subtype B).
Numbers only, in nM.

{"columns": ["compound", "unitsLabel", "endpointResult"],
 "data": [
  ["N[C@H](C(=O)Nc1cncc(F)c1CC[C@@H]1CN[C@H](c2nc3cc(F)c(F)cc3[nH]2)CO1)C(c1ccc(F)cc1)c1ccc(F)cc1 [Example 75]", "nM", 0.01],
  ["COC(=O)N[C@H](C(=O)Nc1ccccc1CC[C@@H]1CN[C@H](c2nc3cc(F)c(F)cc3[nH]2)CO1)C(c1ccccc1)c1ccccc1", "nM", 0.0246],
  ["COC(=O)N[C@H](C(=O)Nc1ccccc1CC[C@@H]1CN[C@H](c2nc3nccnc3[nH]2)CO1)C(c1ccccc1)c1ccccc1", "nM", 1.68],
  ["COC(=O)N[C@H](C(=O)Nc1ccccc1CC[C@@H]1CN[C@H](c2nc3cc(Cl)c(C)cc3[nH]2)CO1)C(c1ccccc1)c1ccccc1", "nM", 1.93],
  ["O=C(C[C@@H](c1ccc(F)cc1)c1ccc(F)cc1F)Nc1cccc(F)c1CC[C@@H]1CN[C@H](c2nc3ccccc3[nH]2)CO1", "nM", 0.05]
]}

Entry `COC(=O)N[C@H](C(=O)Nc1ccccc1CC[C@@H]1CN[C@H](c2nc3c(F)c(F)c(F)cc3[nH]2)CO1)C(c1ccccc1)c1ccccc1` , IC50 reported as 0.0747
